Provenance of the data: ChEMBL document CHEMBL1208708

# method-notes: Dissociation constant, pKa of the compound by spectrophotometric analysis
# Assay type: physicochemical
measure-name: pKa
Numbers only.

>>> print(df.to_string())
                                   compound  observed
0  CCOc1cc(CN2CCC(NC(=O)c3ccc(N)nc3)CC2)ccc1C      8.27
1  CCOc1cc(CN2CCC(NC(=O)c3ccc(NC)nc3)CC2)cc(OCC)c1-c1ccccc1       7.9
2  CCOc1cc(CN2CCC(NC(=O)c3ccc(NC(C)C)nc3)CC2)cc(OCC)c1F      7.84

Give one value of pKa per listed compound.
1. CCOc1cc(CN2CCCC(NC(=O)c3cncc(C)c3)CC2)cc(OCC)c1-c1ccc(F)cc1 (racemic)
2. CCOc1cc(CN2CCC(NC(=O)c3cncc(C)c3)CC2)cc(OCC)c1C
3. CCOc1cc(CN2CCC(NC(=O)c3ccc(NC)nc3)CC2)cc(OCC)c1F
4. CCOc1cc(CN2CCC(NC(=O)c3cncc(C)c3)CC2)cc(OCC)c1-n1ccnc1
5. CCOc1cc(CN2CCC(NC(=O)c3ccc(N)nc3)CC2)cc(OCc2ccccc2)c1-c1ccc(F)cc1
6. CCOc1cc(CN2CCC(NC(=O)c3cncc(C)c3)CC2)cc(OCC)c1F
7. CCOc1cc(CN2CCC(NC(=O)c3cncc(C)c3)CC2)cc(OCC)c1-c1ccccc1

Response:
8.34
7.92
7.83
7.34
7.66
7.7
7.74

---

Field: Selectivity ratio. Provide a value for each of the compounds that follow.
# Species: Homo sapiens
# method-notes: Selectivity ratio of human SST1 receptor to human SST5 receptor
Answers are plain numbers.

                              record_smiles       measure_name  observed
0  CCOc1cc(CN2CCC(NC(=O)c3ccc(N)nc3)CC2)cc(OCC)c1-c1ccc(F)cc1  Selectivity ratio       407

Give one value of Selectivity ratio per listed compound.
1. CCOc1cc(CN2CCC(NC(=O)c3ccc(NC)nc3)CC2)cc(OCC)c1-c1ccccc1
2. CCOc1cc(CN2CCC(NC(=O)c3cncc(C)c3)CC2)cc(OCC)c1-c1ccc(F)cc1

Response:
[439, 59]

Give one value of Selectivity ratio per listed compound.
1. CCOc1cc(CN2CCC[C@@H](NC(=O)c3cncc(C)c3)CC2)cc(OCC)c1F
2. CCOc1cc(CN2CCC(NC(=O)c3cncc(C)c3)CC2)ccc1-c1ccc(F)cc1
3. CCOc1cc(CN2CCC(NC(=O)c3ccc(N)nc3)CC2)cc(OCc2ccccc2)c1-c1ccc(F)cc1
4. CCOc1cc(CN2CCC(NC(=O)c3cncc(C)c3)CC2)cc(OCC)c1F
5. CCOc1cc(CN2CCC(NC(=O)c3cncc(C)c3)CC2)cc(OCC)c1-c1ccccc1

Response:
[253, 84, 660, 180, 224]

---

# method-notes: Solubility of the compound in 50 mM phosphate buffer at pH 6.5 by lyophilisation solubility assay
# Format: physicochemical
measure-name: solubility

Solved entries (count: 2):
>>> print(df.to_string())
                              record_smiles     observed
0  CCOc1cc(CN2CCC(NC(=O)c3ccc(NC(C)C)nc3)CC2)cc(OCC)c1F  > 520 µg/mL
1  CCOc1cc(CN2CCC(NC(=O)c3cncc(C)c3)CC2)ccc1-c1ccc(C(F)(F)F)cc1    < 1 µg/mL

Next up:
Query: Value lookup for solubility; key = "CCOc1cc(CN2CCC(NC(=O)c3cncc(C)c3)CC2)cc(OCC)c1-c1ccc(OC(F)(F)F)cc1"
Response: < 1 µg/mL

---

# method-notes: Octanol-TAPSO distribution coefficient, log D of the compound at pH 7.4 by spectrophotometric analysis
# Type: physicochemical
# experimental-context: octanol/TAPSO buffer
measure-name: logD
Numbers only.

Solved entries (count: 5):
                              record_smiles  measure_name  observed
0  CCOc1cc(CN2CCC(NC(=O)c3ccc(N)nc3)CC2)ccc1C          logD      2.24
1  CCOc1cc(CN2CCC(NC(=O)c3cncc(C)c3)CC2)ccc1-c1ccc(F)cc1          logD       4.1
2  CCOc1cc(CN2CCC(NC(=O)c3cncc(C)c3)CC2)cc(OCC)c1-n1ccnc1          logD      2.61
3  CCOc1cc(CN2CCC(NC(=O)c3cncc(C)c3)CC2)ccc1Cl          logD      3.05
4  CCOc1cc(CN2CCC(NC(=O)c3cncc(C)c3)CC2)cc(OCC)c1-c1ccccc1          logD      3.73

Next up:
Query: Value lookup for logD; key = "CCOc1cc(CN2CCC(NC(=O)c3ccc(N)nc3)CC2)cc(OCC)c1-c1ccc(F)cc1"
Response: 3.15

---

# method-notes: Dissociation constant, pKa of the compound by spectrophotometric analysis
# Type: physicochemical
measure-name: pKa
One number for each entry.

>>> df
                              record_smiles  measure_name  observed
0  CCOc1cc(CN2CCC(NC(=O)c3ccc(N)nc3)CC2)cc(OCC)c1-c1ccc(F)cc1           pKa      7.86
1  CCOc1cc(CN2CCC(NC(=O)c3cncc(C)c3)CC2)ccc1C           pKa      8.08
2  CCOc1cc(CN2CCC(NC(=O)c3ccc(Cl)nc3)CC2)cc(OCC)c1-c1ccc(F)cc1           pKa       7.8
3  CCOc1cc(CN2CCC(NC(=O)c3cncc(C)c3)CC2)ccc1-c1ccc(C(F)(F)F)cc1           pKa      7.96
4  CCOc1cc(CN2CCC(NC(=O)c3ccc(NC)nc3)CC2)cc(OCC)c1-c1ccc(F)cc1           pKa      7.86
5  CCOc1cc(CN2CCC(NC(=O)c3cncc(C)c3)CC2)cc(OCC)c1Cl           pKa      7.46
6  CCOc1cc(CN2CCC(NC(=O)c3cncc(C)c3)CC2)ccc1Cl           pKa      7.63
7  CCOc1cc(CN2CC(NC(=O)c3cncc(C)c3)C2)cc(OCC)c1F           pKa      7.19

Give one value of pKa per listed compound.
1. CCOc1cc(CN2CCC(NC(=O)c3cncc(C)c3)CC2)cc(OCC)c1-c1ccc(F)cc1
2. CCOc1cc(CN2CCC(NC(=O)c3cncc(C)c3)CC2)ccc1-c1ccc(F)cc1

Response:
7.69
7.87

---

# Organism: Homo sapiens
# method-notes: Selectivity ratio of human SST1 receptor to human SST5 receptor
measure-name: Selectivity ratio

Solved entries (count: 2):
In [3]: df
Out[3]:
                              record_smiles       measure_name  observed
0  CCOc1cc(CN2CCC(NC(=O)c3ccc(N)nc3)CC2)ccc1C  Selectivity ratio     > 500
1  CCOc1cc(CN2CCC(NC(=O)c3cncc(C)c3)CC2)ccc1C  Selectivity ratio     > 500

Next up:
Query: Value lookup for Selectivity ratio; key = "CCOc1cc(CN2CCC(NC(=O)c3ccc(NC)nc3)CC2)cc(OCC)c1F"
Response: > 500
